test system: AA1029; test: qHTS profiling for inhibitors of Plasmodium falciparum proliferation (AID 504749); note: nearly all actives have a fitted effect of over 60% in size; conditions: P. falciparum in erythrocytes, SYBR Green DNA, 72 h; series mostly up to 28.7 µM
Results filed as inconclusive are left out. The source made the active and inactive calls. Calls come from the whole dose curve; as a rule, active = well fitted inhibition curve with a large enough effect; inconclusive = small, poorly fitted or top-dose-only effect; inactive = flat fitted curve, though single readings scatter.
Give your call using only these classes: T for active, F for inactive

(Q) Given CC=CC1=C(C(=O)O)N2C(=O)[C@H](NC(=O)[C@H](N)c3ccc(O)cc3)[C@@H]2SC1 , state the outcome it received in this test.
(A) F

(Q) Now try O=c1[nH]c(=O)n(C2CCCO2)cc1F (stereo not given) .
(A) F

(Q) Now try COC(=O)C1=C(C)NC(C)=C(C(=O)OCCN2CCN(C(c3ccccc3)c3ccccc3)CC2)C1c1cccc([N+](=O)[O-])c1 (stereo not given) .
(A) T

(Q) Now try C[C@H]1C[C@@H]2[C@@H]([C@@H](O)C[C@@]3(C)[C@H]2CC[C@]3(O)C(=O)CO)[C@@]2(C)C=CC(=O)C=C12 .
(A) F

(Q) Now try COc1cc(C(=O)NS(=O)(=O)c2ccccc2C)ccc1Cc1cn(C)c2ccc(NC(=O)OC3CCCC3)cc12 .
(A) F
